# target desc: FPR1 (Homo sapiens)
# Construct: expressed in transfected cells
# Sequence (P21462 whole entry): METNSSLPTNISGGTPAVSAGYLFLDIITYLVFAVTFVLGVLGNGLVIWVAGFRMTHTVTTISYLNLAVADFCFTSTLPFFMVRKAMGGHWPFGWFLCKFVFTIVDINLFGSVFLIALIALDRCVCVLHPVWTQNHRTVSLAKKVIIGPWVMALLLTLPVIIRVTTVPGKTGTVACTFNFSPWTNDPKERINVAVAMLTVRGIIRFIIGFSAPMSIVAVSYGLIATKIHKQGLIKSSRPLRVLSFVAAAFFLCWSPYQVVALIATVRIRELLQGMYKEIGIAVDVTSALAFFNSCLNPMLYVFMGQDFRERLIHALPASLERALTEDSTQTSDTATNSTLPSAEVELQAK
# assay summary: Compound-induced calcium activity (FLIPR Tetra) in CHO-Gα16 cells stably expressing FPR1
# Format: cell-based
# condition: ratio of the EC50 for agonizing FPR2 to the EC50 for agonizing FPR1
observed property: Ratio FPR2:FPR1 (EC50)
Respond using a number only.

CC(C)C(CNC(=O)Nc1ccc(Br)cc1)C(=O)O (stereo not drawn) [Compound 13]    1.2
CC(C)CC(CNC(=O)Nc1ccc(OC(F)(F)F)cc1)C(=O)O (stereo not drawn) [Compound 12]    6.9
CC(C)CC(CNC(=O)Nc1ccc(Br)cc1)C(=O)O (stereo not drawn) [Compound 7]    37
CC(C)CC(CNC(=O)Nc1ccc(Br)cc1)C(=O)N(C)CC(=O)OC(C)(C)C (stereo not drawn) [Compound 32]    0.41
CC(C)CC(CNC(=O)Nc1ccc(Br)cc1)C(=O)N(C)CC(=O)O (stereo not drawn) [Compound 37]    0.22

Ask: Please list Ratio FPR2:FPR1 (EC50) recorded for the compound CC(C)CC(CNC(=O)Nc1ccc(Br)cc1)C(N)=O (stereo not drawn) [Compound 35]
Reply: 0.14

Ask: Please list Ratio FPR2:FPR1 (EC50) recorded for the compound CC(CNC(=O)Nc1ccc(Br)cc1)C(=O)O (stereo not drawn) [Compound 16]
Reply: 1.1
